As shown below, each of these molecules has a reported CC50 at 5 days value.
- RUN_DESCRIPTION: in vitro
- ASSAY_SETUP: human
REPORTED_ENDPOINT: CC50 at 5 days

smiles_code=CCS(=O)(=O)N1CCN(c2ccc(Nc3nccc(Oc4c(C)cc(C#N)cc4C)n3)cc2C#N)CC1 reported_endpoint="CC50 at 5 days" result="> 241 µM"
smiles_code=Cc1cc(/C=C/C#N)cc(C)c1Oc1ccnc(Nc2ccc(N3CCN(S(C)(=O)=O)CC3)c(C#N)c2)n1 reported_endpoint="CC50 at 5 days" result="10.2 µM"
smiles_code=O=C1Nc2ccc(Cl)cc2[C@@](C#CC2CC2)(C(F)(F)F)O1 reported_endpoint="CC50 at 5 days" result="> 6.33 µM"
smiles_code=Cc1cn([C@H]2C[C@H](N=[N+]=[N-])[C@@H](CO)O2)c(=O)[nH]c1=O reported_endpoint="CC50 at 5 days" result="> 7.48 µM"
smiles_code=Cc1ccnc2c1NC(=O)c1cccnc1N2C1CC1 reported_endpoint="CC50 at 5 days" result="> 15 µM"

Data origin: paper PMC10148624
